Test system: EKVX NSCLC
Measurement Description: NCI-60 one-dose screen, 48 h (100 = growth as untreated, 0 = no growth, -100 = all killed)
Conditions: 10 µM unless noted
Description: Growth inhibition of the EKVX human Non-Small Cell Lung tumor cell line is measured as a screen for anti-cancer activity. Cells are grown in 96 well plates and exposed to the test compound for 48 hours. Compounds are tested at a single concentration, which is 10^-5 M for most compounds. The reported endpoint is percent growth (GI% or GIPRCNT), where numbers from 0 - 100% represent growth inhibition, and numbers from -100% - 0 represent cell death. […]
The panel holds about 83,000 compounds, 20% with a hit somewhere; the sample as a whole holds those more often.
Returns the class for an entry based on its growth. Class ranges: class A = under 50%, class B = from 50% up to 90%, class C = 90% and over

>>> label("CCCCCCCCN(CCCCCCCC)CC(O)c1cc(Cl)ccc1OC (stereo not given)")
"class B"
>>> label("CC[C@]1(O)CC2CN(CCc3c([nH]c4ccccc34)C(C(=O)OC)(c3cc4c(cc3OC)N(C=O)[C@H]3[C@@](O)(C(=O)OC)[C@H](OC(C)=O)[C@]5(CC)[C@@H]6C[C@@H]6CN6CC[C@]43[C@@H]65)C2)C1 (stereo not given in full)")
"class A"
>>> label("O=C1/C(=C/c2ccc(F)c(F)c2)CN(C(=O)C(Cl)Cl)C/C1=C\\c1ccc(F)c(F)c1")
"class A"
>>> label("Cc1ccc(/C=C2\\COc3ccc(O)c(O)c3C2=O)cc1")
"class A"
>>> label("COc1ccc(-c2c[nH]c(C(=O)O)c2-c2cc(OC)c(OC)c(OC)c2)cc1")
"class B"
>>> label("COc1ccc(/C=C2/C(=O)N=C3N2NC(c2ccccc2)=CN3c2ccccc2)cc1")
"class C"
>>> label("Cc1cc(N2CCCCC2)nc(NCc2cc(Nc3ccnc4cc(Cl)ccc34)ccc2F)n1")
"class A"
>>> label("O=C(Nc1ccccc1C(=O)N/N=C(\\c1ccccc1)c1ccccn1)c1ccccc1")
"class A"
>>> label("C/C(=C(\\c1ccc(OCCN2CCOCC2)cc1)c1ccc(OC(=O)C2CCCCC2)cc1)c1ccc(Cl)cc1")
"class C"
>>> label("CCC(=O)Oc1cc(Cl)c(Cl)cc1Cl")
"class C"
>>> label("COc1ccc2nc3cc(Cl)ccc3c(NCCCNCCC(C)O)c2c1 (stereo not given)")
"class A"
>>> label("CCCCCCCCCCCCCCCC(=O)O[C@@H]1[C@@H](O)[C@@H](O)C([C@H](NC(=O)[C@@H]2C[C@@H](CCC)CN2C)[C@H](C)Cl)O[C@@H]1SC (stereo not given in full)")
"class C"
>>> label("BrC1=C(Br)C(Br)(Br)C(Br)=C1Br")
"class C"
>>> label("O=C1/C(=C/c2ccccc2)CN(C(=O)C(Cl)Cl)C/C1=C\\c1ccccc1")
"class A"
>>> label("Cc1ccccc1SSc1ccccc1C")
"class C"
>>> label("Clc1cccc(Nc2ncnc3ccc(-c4cncc(-n5cnnn5)c4)cc23)c1")
"class A"
>>> label("O=S(=O)(Nc1cc(Sc2cccc3cccnc23)c(O)c2ccccc12)c1ccc(F)cc1")
"class A"
>>> label("COc1ccc(-c2ccc(-c3ccc(C(=N)N)cn3)o2)cc1Cl")
"class B"
>>> label("CN1C(=O)N(C)C2(c3ccccc3)N(CC(=O)Nc3ccccc3O)C(=O)NC12c1ccccc1 (stereo not given)")
"class C"
>>> label("FC(F)(F)Sc1ccc(/C=C/c2cc(/C=C/c3ccc(SC(F)(F)F)cc3)n(-c3ccccc3)n2)cc1")
"class C"
>>> label("CNC(=O)c1cc(Oc2ccc3nc(NC(=O)Nc4ccc(C(F)(F)F)cc4)sc3c2)ccn1")
"class B"
>>> label("COc1ccc(-c2ccc(-c3ccc(C(=N)N)cn3)s2)cc1Cl")
"class A"
>>> label("COc1ccc(/C=C2\\COc3ccc(O)c(O)c3C2=O)c(OC)c1OC")
"class B"
>>> label("CCN1C(=S)N(CC)C2C1NC(=S)N2/N=C/C=C/c1ccccc1 (stereo not given)")
"class B"
>>> label("O=C(CCl)N(O)c1ccc(/C=C/c2ccccc2)cc1")
"class B"
>>> label("Nc1nc2c(s1)CCc1cn(S(=O)(=O)c3ccccc3)cc1-2")
"class C"
>>> label("O=C(CCl)n1nnnc1Cc1ccccc1")
"class C"
>>> label("N#CC(Cc1cccc2ccccc12)c1cc2ccccc2[nH]1 (stereo not given)")
"class C"
>>> label("COc1ccc2c(c1)CC[C@@H]1[C@@H]2CC[C@]2(C)C3C(=CCC4C(=O)N(c5ccccc5)C(=O)C43)C[C@@H]12 (stereo not given in full)")
"class C"
>>> label("Cn1cc(-c2csc(-c3cn(CCOC(N)=O)c4ccccc34)n2)c2cccnc21")
"class B"
>>> label("O=C1CCCCN1CCCCC#Cc1cccc(C#Cc2cccnc2)c1")
"class C"
>>> label("NC1=CC(=O)c2cccnc2C1=O")
"class A"
>>> label("CCCCC1=C(Br)C(=O)c2nc(C)ccc2C1=O")
"class C"
>>> label("Cc1ccc(/C=C/c2c(C(=O)/C=C/c3ccccc3)c(C)nc3ccccc23)cc1")
"class A"
>>> label("Fc1ccccc1-c1cnn2cc(-c3ccccc3)cnc12")
"class C"
>>> label("COC(=O)c1nc(-c2ccc(C)cc2)oc1Sc1ccc(C)cc1")
"class C"
>>> label("Nc1ncnc2c1C(c1ccc([N+](=O)[O-])cc1)c1sc3c(F)cccc3c1O2 (stereo not given)")
"class C"
